# assay target: Integrin αvβ1 Receptor (Homo sapiens, UniProt P05556+P06756)
# Sequence (P06756 31-992 limits assumed): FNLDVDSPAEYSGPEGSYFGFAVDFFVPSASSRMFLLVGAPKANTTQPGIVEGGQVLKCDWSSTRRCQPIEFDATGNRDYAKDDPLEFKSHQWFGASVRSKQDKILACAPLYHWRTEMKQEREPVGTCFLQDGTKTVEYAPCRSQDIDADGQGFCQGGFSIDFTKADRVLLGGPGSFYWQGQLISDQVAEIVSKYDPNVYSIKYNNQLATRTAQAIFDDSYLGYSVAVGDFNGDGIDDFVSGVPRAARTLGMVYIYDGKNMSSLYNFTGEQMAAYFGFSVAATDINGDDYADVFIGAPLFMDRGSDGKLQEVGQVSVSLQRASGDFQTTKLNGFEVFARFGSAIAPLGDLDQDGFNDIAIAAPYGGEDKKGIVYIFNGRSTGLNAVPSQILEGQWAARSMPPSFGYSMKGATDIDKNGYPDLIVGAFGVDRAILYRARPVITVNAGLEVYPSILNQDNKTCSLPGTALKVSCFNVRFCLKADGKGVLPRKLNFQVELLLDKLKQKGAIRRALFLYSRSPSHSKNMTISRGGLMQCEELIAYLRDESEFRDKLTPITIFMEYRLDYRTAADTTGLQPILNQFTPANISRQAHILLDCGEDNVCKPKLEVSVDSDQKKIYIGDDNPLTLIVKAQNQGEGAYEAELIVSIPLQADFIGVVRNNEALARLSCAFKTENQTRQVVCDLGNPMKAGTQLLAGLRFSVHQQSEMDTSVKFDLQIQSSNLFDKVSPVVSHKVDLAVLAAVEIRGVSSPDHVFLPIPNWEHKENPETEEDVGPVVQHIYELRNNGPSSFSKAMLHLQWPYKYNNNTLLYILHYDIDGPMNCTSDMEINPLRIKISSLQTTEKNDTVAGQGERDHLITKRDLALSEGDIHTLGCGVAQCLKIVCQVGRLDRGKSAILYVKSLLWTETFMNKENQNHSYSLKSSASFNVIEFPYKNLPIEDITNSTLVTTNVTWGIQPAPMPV
# Sequence (P05556 21-728 limits assumed): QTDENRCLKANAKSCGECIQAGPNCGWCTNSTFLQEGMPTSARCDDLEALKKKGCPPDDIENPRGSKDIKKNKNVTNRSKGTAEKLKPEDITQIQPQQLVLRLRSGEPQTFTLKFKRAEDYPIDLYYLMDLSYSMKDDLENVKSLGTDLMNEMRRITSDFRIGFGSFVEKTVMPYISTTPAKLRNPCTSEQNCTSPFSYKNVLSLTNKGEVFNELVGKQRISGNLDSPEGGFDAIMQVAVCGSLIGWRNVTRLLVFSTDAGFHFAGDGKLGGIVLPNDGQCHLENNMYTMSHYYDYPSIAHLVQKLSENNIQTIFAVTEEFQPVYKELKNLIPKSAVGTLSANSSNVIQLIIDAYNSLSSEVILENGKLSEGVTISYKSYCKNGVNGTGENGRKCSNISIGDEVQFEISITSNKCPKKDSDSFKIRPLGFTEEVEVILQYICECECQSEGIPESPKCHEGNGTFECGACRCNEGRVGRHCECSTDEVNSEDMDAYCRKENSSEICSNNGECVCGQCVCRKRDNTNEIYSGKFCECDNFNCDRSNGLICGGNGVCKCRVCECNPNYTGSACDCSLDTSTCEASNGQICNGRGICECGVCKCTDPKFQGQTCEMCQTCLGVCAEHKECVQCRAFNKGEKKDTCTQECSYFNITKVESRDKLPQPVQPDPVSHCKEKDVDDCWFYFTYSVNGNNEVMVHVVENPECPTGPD
# assay details: Fluorescence polarization (FP) binding activity to integrin αvβ1 receptor (competition with Cyclo[-RGDy-K(5-FAM)])
# condition details: Table 4, different integrin receptors
Would you mind telling me the reported IC50 of each entry?
Numbers only, in nM.

{"molecule": "[N-]=[N+]=NCCOCCOCCOCCOCCOc1ccc([C@H](CC(=O)O)CN2CC[C@@H](CCc3ccc4c(n3)NCCC4)C2)cc1 (single isomer, unassigned) [Compound 20-P1]", "quantity measured": "IC50", "recorded value": 8.1}
{"molecule": "[N-]=[N+]=NCCOCCOCCOCCOCCOc1cccc([C@H](CC(=O)O)CN2CC[C@@H](CCc3ccc4c(n3)NCCC4)C2)c1 (single isomer, unassigned) [Compound 18-P1]", "quantity measured": "IC50", "recorded value": 9.1}

Could you now consider this next molecule?
-- ask For the molecule shown here, Cc1ccnc(NCCC2CCN(CC(=O)NC(CC(=O)O)c3ccc(-c4ccc(OCCOCCOCCOCCOCCN=[N+]=[N-])c5ccccc45)cc3)C2=O)c1 (single isomer, unassigned) [Compound 5-P1] , give the reported IC50.
-- reply 753

====

# assay target: Integrin αvβ6 Receptor (Homo sapiens, UniProt P06756+P18564)
# Sequence (P06756 31-992 limits assumed): as the sequence (P06756 31-992 limits assumed) above
# Sequence (P18564 22-707 limits assumed): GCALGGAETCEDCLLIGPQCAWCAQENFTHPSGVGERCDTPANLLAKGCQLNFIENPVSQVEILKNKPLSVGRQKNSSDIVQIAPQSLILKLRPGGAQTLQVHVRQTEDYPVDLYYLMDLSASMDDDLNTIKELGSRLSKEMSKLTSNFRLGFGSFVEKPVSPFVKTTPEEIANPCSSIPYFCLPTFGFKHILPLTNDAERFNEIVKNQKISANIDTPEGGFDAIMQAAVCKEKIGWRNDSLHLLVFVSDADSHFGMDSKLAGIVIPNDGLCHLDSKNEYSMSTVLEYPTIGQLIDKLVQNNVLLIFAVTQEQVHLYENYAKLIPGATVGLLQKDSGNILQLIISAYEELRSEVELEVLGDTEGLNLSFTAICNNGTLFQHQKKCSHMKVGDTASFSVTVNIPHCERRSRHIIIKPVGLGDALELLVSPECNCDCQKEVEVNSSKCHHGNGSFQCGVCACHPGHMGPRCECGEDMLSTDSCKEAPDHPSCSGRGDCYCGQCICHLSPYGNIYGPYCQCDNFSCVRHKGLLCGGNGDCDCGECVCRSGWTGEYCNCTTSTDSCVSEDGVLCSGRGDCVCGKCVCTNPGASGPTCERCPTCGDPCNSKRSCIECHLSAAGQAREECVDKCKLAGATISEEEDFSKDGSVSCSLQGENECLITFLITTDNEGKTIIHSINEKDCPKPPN
# assay details: HTRF binding activity to integrin αvβ6 receptor (competition with LAP (TGF-beta 1))
# condition details: Integrin αvβ6, HTRF; table of 5FAM-labelled compounds; read-out: IC50
quantity measured: pIC50
Numbers only, as −log10 of the molar value.

{"molecule": "O=C(O)CC(NC(=O)CCCCc1nc2c(cc1CNC(=O)CCOCCOCCOCCOCCNC(=O)c1ccc3c(c1)C(=O)OC31c3ccc(O)cc3Oc3cc(O)ccc31)CCCN2)c1ccc(-c2cccc3ccccc23)cc1 (stereo not drawn)", "pIC50": 8.83}

-- ask For the molecule shown here, `[N-]=[N+]=NCCOCCOCCOCCOCCOc1ccc(-c2ccc([C@H](CC(=O)O)NC(=O)CCCCc3ccc4c(n3)NCCC4)cc2)c2ccccc12` , give the reported pIC50.
-- reply 8.86

====

# assay target: Integrin αvβ5 Receptor (Homo sapiens, UniProt P06756+P18084)
# Sequence (P06756 31-992 limits assumed): as the sequence (P06756 31-992 limits assumed) above
# Sequence (P18084 24-719 limits assumed): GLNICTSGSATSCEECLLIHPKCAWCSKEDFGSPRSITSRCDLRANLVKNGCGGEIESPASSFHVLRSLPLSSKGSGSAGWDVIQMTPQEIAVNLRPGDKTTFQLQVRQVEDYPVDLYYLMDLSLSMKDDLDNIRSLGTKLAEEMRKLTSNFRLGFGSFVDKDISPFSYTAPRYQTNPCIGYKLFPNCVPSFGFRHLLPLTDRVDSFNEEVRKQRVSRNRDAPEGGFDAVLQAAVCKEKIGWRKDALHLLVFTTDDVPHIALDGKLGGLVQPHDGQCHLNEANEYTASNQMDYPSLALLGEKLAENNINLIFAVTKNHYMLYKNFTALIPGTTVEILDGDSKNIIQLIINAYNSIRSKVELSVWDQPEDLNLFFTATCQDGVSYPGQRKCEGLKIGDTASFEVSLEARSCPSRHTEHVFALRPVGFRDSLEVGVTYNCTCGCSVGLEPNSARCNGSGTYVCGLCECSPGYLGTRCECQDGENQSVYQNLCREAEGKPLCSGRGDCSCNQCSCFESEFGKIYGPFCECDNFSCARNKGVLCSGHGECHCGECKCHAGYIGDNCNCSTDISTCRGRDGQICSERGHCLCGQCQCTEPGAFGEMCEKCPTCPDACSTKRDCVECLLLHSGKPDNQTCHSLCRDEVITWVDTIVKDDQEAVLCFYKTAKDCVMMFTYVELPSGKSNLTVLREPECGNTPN
# assay details: HTRF binding activity to integrin αvβ5 receptor (competition with Vitronectin)
# condition details: read-out: IC50 (nM) αvβ5, Table 4, different integrin receptors
quantity measured: IC50 (nM)
One number for each entry, in nM.

-- ask For the compound shown here, Cc1nn(-c2cccc(C(CC(=O)O)CN3CC[C@@H](CCc4ccc5c(n4)NCCC5)C3)c2)c(C)c1OCCOCCOCCOCCOCCN=[N+]=[N-] (single isomer, unassigned) [Compound 14-P2] , give the reported IC50.
-- reply 0.7

====

# assay target: Integrin αvβ6 Receptor (Homo sapiens, UniProt P06756+P18564)
# assay details: HTRF binding activity to integrin αvβ6 receptor (competition with LAP (TGF-beta 1))
# condition details: Table 4, different integrin receptors; read-out: IC50 (nM) αvβ6
quantity measured: IC50 (nM)
Give bare numbers, in nM.

{"compound": "Cc1ccnc(NCCC2CCN(CC(=O)NC(CC(=O)O)c3ccc(-c4ccc(OCCOCCOCCOCCOCCN=[N+]=[N-])c5ccccc45)cc3)C2=O)c1 (single isomer, unassigned) [Compound 5-P1]", "recorded value": 3.6}
{"compound": "[N-]=[N+]=NCCOCCOCCOCCOCCOc1cccc([C@H](CC(=O)O)CN2CC[C@@H](CCc3ccc4c(n3)NCCC4)C2)c1 (single isomer, unassigned) [Compound 18-P1]", "recorded value": 3.2}
{"compound": "Cc1ccnc(NCCC2CCN(CC(=O)NC(CC(=O)O)c3ccc(-c4ccc(OCCOCCOCCOCCOCCN=[N+]=[N-])c5ccccc45)cc3)C2=O)c1 (single isomer, unassigned) [Compound 5-P2]", "recorded value": 3.9}
{"compound": "Cc1ccnc(NCCCC(=O)NCC(=O)N[C@@H](CC(=O)O)c2ccc(-c3ccc(OCCOCCOCCOCCOCCN=[N+]=[N-])c4ccccc34)cc2)c1 [Compound 1, reference compound]", "recorded value": 2.5}
{"compound": "Cc1nn(-c2cccc(C(CC(=O)O)CN3CC[C@@H](CCc4ccc5c(n4)NCCC5)C3)c2)c(C)c1OCCOCCOCCOCCOCCN=[N+]=[N-] (single isomer, unassigned) [Compound 14-P2]", "recorded value": 3.9}

-- ask # value lookup — system Integrin αvβ6 Receptor (Homo sapiens, UniProt P06756+P18564), readout IC50, item [N-]=[N+]=NCCOCCOCCOCCOCCOc1ccc([C@H](CC(=O)O)CN2CC[C@@H](CCc3ccc4c(n3)NCCC4)C2)cc1 (single isomer, unassigned) [Compound 20-P1]
-- reply 3.7

Values were extracted from patent EP4786451A1.
